# target-under-test: T1, human BACE1 ECD
# T1 construct: analyte of the Octet assay (200 nM) and enzyme of the first short substrate assay; also called human BACE1 extracellular domain
# T1 sequence (single chain, as listed by the source limits assumed): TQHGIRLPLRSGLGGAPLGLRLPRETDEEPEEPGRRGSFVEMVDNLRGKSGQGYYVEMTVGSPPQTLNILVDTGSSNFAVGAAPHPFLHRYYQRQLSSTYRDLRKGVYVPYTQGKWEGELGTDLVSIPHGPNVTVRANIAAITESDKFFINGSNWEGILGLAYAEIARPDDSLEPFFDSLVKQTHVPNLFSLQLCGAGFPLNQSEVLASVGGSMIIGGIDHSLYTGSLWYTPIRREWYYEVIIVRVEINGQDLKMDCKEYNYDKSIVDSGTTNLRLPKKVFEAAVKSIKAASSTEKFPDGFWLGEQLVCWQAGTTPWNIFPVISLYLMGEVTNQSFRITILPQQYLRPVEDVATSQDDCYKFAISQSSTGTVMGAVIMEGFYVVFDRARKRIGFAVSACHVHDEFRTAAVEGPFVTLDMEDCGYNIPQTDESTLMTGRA
# protocol-summary: Octet, pH 5.0
property-measured: Kd (nM)
One number for each entry, in nM.

Record request: Kd value, item 6310 (antibody, V domains shown, anti-BACE1 IgG) VH: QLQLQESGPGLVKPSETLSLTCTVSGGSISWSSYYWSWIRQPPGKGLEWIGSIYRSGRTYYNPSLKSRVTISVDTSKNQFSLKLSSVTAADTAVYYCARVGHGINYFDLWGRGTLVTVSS VL: EIVLTQSPATLSLSPGERATLSCRASQSVSSYLAWYQQKPGQAPRLLIYDASNRATGIPARFSGSGSGTDFTLTISSLEPEDFAVYYCQQSVTWPPRTFGGGTKVEIK
0.44
